Data provenance is patent US11976075B2.

- Test System: Recombinant KAT6A/MOZ (488-778) protein (Homo sapiens)
- Construct: Recombinant KAT6A/MOZ (488-778) protein (Active motif, Catalog #81223); purchased Active Motif 81223
- Sequence (Q92794 488-778): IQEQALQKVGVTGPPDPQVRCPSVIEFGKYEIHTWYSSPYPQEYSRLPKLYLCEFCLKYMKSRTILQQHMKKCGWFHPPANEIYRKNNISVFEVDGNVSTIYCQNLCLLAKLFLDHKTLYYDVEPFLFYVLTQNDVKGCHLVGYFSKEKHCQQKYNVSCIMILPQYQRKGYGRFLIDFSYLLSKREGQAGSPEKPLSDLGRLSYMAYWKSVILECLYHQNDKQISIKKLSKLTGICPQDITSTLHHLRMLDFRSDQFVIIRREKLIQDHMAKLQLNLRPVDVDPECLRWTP
- Method: Kat6a AlphaLISA Inhibition Screening Assay
- Type: biochemical
- Condition Summary: 60′ pre-incubation; Table 3; read-out: Kat6A Biochemical assay: IC50
pIC50: −log10 of the molar value.

Compound	pIC50
C#CC(=O)N1CCN(c2cccc(-c3cc(OC)c4c(NS(=O)(=O)N(C)C5CCCCC5)noc4c3)c2)CC1	≥ 5.00
C#CC(=O)N1CCCN(c2cccc(-c3cc(OC)c4c(NS(=O)(=O)c5c(OC)cccc5OC)noc4c3)c2)CC1	≥ 5.00
COc1ccccc1S(=O)(=O)Nc1noc2cc(Cn3ncc4c3CN(S(=O)(=O)c3c(F)c(F)c(F)c(F)c3F)C4)cc(OC)c12	≥ 5.00
C#CC(=O)N1CCC(c2cccc(-c3cc(OC)c4c(NS(=O)(=O)c5c(OC)cccc5OC)noc4c3)c2)C1 (stereo not shown)	≥ 5.00
C#CC(=O)N1CCN(c2cccc(-c3cc(OC)c4c(NS(=O)(=O)c5c(OC)cccc5OC)noc4c3)n2)CC1	≥ 5.00
C#CC(=O)N1CCC(c2ccnc(-c3cc(C)cc(C(=O)NNS(=O)(=O)c4ccccc4F)c3)c2)C1 (stereo not shown)	≥ 5.00
C#CC(=O)N1Cc2cnn(Cc3cc(OC)c4c(NS(=O)(=O)c5cc(CC)ccc5OC)noc4c3)c2C1	≥ 5.00
C#CC(=O)N1CCc2nn(Cc3cc(OC)c4c(NS(=O)(=O)c5cc(CC)ccc5OC)noc4c3)cc2C1 [105b]	≥ 5.00
C=CS(=O)(=O)NC1CCN(Cc2cc(OC)c3c(NS(=O)(=O)c4ccccc4OC)noc3c2)CC1	≥ 5.00
C=CS(=O)(=O)NCCCOCc1cc(OC)c2c(NS(=O)(=O)c3cc(CC)ccc3OC)noc2c1	≥ 5.00
C=CC(=O)N1CCC(c2ccccc2-c2cc(OC)c3c(NS(=O)(=O)c4c(OC)cccc4OC)noc3c2)C1 (stereo not shown)	< 5.00
C#CC(=O)N1CCN(c2cccc(-c3cc(OC)c4c(NS(=O)(=O)c5cc(CC)ccc5OC)noc4n3)c2)CC1	< 5.00
C#CC(=O)N1CCN(c2ncc(-c3cc(OC)c4c(NS(=O)(=O)c5c(OC)cccc5OC)noc4c3)s2)CC1	≥ 5.00
